# Experimental target: ERR1 (also known as ERR-α or ERR-1) (Homo sapiens)
# Construct: the ^6His-tagged-ERR1 LBD
# Sequence (P11474 193-421 limits assumed): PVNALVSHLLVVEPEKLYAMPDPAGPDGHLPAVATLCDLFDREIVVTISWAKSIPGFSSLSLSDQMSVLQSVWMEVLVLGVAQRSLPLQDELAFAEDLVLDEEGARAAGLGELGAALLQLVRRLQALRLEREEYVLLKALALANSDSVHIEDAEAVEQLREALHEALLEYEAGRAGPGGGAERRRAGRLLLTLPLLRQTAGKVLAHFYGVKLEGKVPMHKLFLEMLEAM
# Method notes: TR-FRET assay: disruption of co-activator peptide binding to ERR1 LBD
# Test settings: 6His-tagged ERR1 LBD 6 nM, GST-SRC-2 peptide 6 nM, 25° C., 4-18 hours; average of 3 independent experiments
Observable: EC50 (nM)
Give the value, in units of nM, as a plain number.

Recorded EC50 of N#Cc1ccc(Oc2ccc(/C=C3\SC(N4CCC(O)C4)=NC3=O)cc2F)c(C(F)(F)F)c1 (stereo not drawn) [Example 45] , please. 39

Look up EC50 for this molecule: COc1cc(/C=C2\SC(NC3CC3)=NC2=O)ccc1Oc1ccc(C#N)cc1C(F)(F)F [Compound 9] 15

For the molecule shown here, CC1CN(C2=NC(=O)/C(=C/c3ccc(Oc4ccc(C#N)cc4C(F)(F)F)c(F)c3)S2)CC(C)O1 (stereo not drawn) [Example 46] , give the reported EC50. 19

Look at this molecule and give its reported EC50. N#Cc1ccc(Oc2ccc(/C=C3\SC(NCC(F)F)=NC3=O)cc2F)c(C(F)(F)F)c1 [Example 97] 40

Fill in the blank: the reported EC50 of COC(=O)CNC1=NC(=O)/C(=C/c2ccc(Oc3ccc(C#N)cc3C(F)(F)F)c(OC)c2)S1 [Example 84] is ____. 7

Please give the measured EC50 for this molecule: COc1cc(/C=C2\SC(NCCN3CCOCC3)=NC2=O)ccc1Oc1ccc(C#N)cc1C(F)(F)F [Example 33] 15
